Target: T1, MERS spike protein on recombinant CHO K1 cells (MERS-CoV, UniProt K9N5Q8 18-1353)
T1 sequence: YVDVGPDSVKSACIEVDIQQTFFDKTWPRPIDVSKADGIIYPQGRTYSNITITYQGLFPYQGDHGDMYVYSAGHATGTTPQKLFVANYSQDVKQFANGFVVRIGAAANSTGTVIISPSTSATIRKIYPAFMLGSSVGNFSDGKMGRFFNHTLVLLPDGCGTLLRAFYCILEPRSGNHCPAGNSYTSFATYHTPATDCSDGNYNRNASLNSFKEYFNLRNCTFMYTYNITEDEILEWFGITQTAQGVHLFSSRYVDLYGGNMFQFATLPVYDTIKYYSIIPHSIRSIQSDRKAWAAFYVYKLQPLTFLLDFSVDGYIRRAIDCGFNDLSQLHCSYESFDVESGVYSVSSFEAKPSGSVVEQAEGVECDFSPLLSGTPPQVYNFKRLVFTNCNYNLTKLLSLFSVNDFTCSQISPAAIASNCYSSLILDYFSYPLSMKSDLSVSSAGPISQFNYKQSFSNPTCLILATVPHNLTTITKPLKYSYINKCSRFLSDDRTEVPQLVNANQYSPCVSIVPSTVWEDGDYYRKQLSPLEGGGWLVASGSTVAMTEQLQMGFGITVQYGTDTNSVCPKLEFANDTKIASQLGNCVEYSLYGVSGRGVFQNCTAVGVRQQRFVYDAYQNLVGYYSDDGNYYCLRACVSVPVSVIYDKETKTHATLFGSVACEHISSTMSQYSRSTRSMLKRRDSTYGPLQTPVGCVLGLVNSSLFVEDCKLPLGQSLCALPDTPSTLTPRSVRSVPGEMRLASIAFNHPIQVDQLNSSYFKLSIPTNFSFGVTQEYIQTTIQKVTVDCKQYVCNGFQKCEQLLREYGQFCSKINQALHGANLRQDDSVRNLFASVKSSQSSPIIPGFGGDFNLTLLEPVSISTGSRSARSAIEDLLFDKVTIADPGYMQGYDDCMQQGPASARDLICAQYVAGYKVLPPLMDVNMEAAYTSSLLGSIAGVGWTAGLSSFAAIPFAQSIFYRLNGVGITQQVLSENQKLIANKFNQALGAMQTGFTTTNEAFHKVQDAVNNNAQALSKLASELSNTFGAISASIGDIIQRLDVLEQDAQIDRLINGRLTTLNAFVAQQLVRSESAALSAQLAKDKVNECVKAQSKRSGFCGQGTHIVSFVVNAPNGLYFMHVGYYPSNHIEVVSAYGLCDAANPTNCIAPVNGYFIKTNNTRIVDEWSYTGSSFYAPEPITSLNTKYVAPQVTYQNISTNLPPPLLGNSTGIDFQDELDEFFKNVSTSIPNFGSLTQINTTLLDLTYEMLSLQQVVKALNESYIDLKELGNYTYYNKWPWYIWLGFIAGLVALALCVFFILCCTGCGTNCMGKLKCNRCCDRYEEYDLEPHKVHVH
Experiment: FACS on CHO K1 cells
Quantity Measured: binding result

| Binder | Val |
| --- | --- |
| 19C10 VHH-Fc (Fc fusion) QVQLVESGGGLVQPGGSLRLSCAASGFTLDLNSIGWFRQAPGKEREGVSCISPSASSTHYADSVKGRFTISRDNAKNTVYLQMNSLKPEDTAVYYCATGTPSYHYCSMYGLEYDDWGQGTQVTVSS | no binding |
| 1A11 VHH-Fc (Fc fusion) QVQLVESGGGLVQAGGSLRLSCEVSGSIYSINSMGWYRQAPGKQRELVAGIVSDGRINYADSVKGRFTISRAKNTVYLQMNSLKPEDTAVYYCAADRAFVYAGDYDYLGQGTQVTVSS | no binding |
